tested on: ragweed; test: Test A pre-/postemergence herbicide test; type: in vivo, Ambrosia elatior; conditions: Postemergence, 500 g ai/ha
observation type: Ragweed plant response rating (0 to 100 scale, 0 is no effect, 100 is complete control)
Would you mind answering with just the numeric figure?

Worked set:
{"compound": "Cc1ccc(C2CNC(=O)C2C(=O)Nc2cccc(F)c2)cc1 (racemic) [Compound 153]", "numeric value": 10}
{"compound": "O=C1NCC(c2cccc(C(F)(F)F)c2)C1C(=O)Nc1ncc(Cl)s1 (racemic) [Compound 113]", "numeric value": 0}

Now take the following compound into account.
# Ragweed plant response rating (0 to 100 scale, 0 is no effect, 100 is complete control) lookup, item Cc1ccc(C2CNC(=O)C2C(=O)Nc2cccc(F)c2F)cc1 (racemic) [Compound 151]
70
